- System: KB
- experiment_description: Cytotoxicity against human KB cells assessed as growth inhibition at 0.1 ug/ml after 24 hrs by MTT assay
- Format: functional
- test_conditions: read-out: GI
value_type: inhibition of growth at 0.1 µg/mL (%)

- compound: "O=C(CCCCC1CCSS1)Nc1ccc(F)cc1 (stereo not drawn)"
  result: 11.3
- compound: "COc1ccc(NC(=O)CCCCC2CCSS2)cc1 (stereo not drawn)"
  result: 4
- compound: "O=C(CCCCC1CCSS1)Nc1cccc(C(F)(F)F)c1 (stereo not drawn)"
  result: 0.33
- compound: "Cc1cccc(NC(=O)CCCCC(S)CCS)c1 (stereo not drawn)"
  result: 5.75
- compound: "CC(=O)SCCC(CCCCC(=O)Nc1ccc(Cl)cc1)SC(C)=O (stereo not drawn)"
  result: 11.4
- compound: "O=C(CCCCC1CCSS1)Nc1ccc([N+](=O)[O-])c(C(F)(F)F)c1 (stereo not drawn)"
  result: 4.5
- compound: "O=C(CCCCC1CCSS1)Nc1cccc(Cl)c1 (stereo not drawn)"
  result: 2.85
- compound: "CC(=O)SCCC(CCCCC(=O)O)SC(C)=O (stereo not drawn)"
  result: 7.24
- compound: "Cc1cccc(NC(=O)CCCCC2CCSS2)c1 (stereo not drawn)"
  result: 4.29
- compound: "CC(=O)SCCC(CCCCC(=O)Nc1ccccc1Cl)SC(C)=O (stereo not drawn)"
  result: 7.05
- compound: "O=C(CCCCC1CCSS1)Nc1ccccc1Cl (stereo not drawn)"
  result: 5.11
- compound: "O=C(CCCCC(S)CCS)Nc1ccc(Cl)cc1 (stereo not drawn)"
  result: 9.11
- compound: "O=C(CCCCC(S)CCS)Nc1ccc(F)cc1 (stereo not drawn)"
  result: 6.78
